# Test Target: D(2) dopamine receptor (Homo sapiens) (UniProt P14416)
# Sequence (P14416 whole entry, looked up): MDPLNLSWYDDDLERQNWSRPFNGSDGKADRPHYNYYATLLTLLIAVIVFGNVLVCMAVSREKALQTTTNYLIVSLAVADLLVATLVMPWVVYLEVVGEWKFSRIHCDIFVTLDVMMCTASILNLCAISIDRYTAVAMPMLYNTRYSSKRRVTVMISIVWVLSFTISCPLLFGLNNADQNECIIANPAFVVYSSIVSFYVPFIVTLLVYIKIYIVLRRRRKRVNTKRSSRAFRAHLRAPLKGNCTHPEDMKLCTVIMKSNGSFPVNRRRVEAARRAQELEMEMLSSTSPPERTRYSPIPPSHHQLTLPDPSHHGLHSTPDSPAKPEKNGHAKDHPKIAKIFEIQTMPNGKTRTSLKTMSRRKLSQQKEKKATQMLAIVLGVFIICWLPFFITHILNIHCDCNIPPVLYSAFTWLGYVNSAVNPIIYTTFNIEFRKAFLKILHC
# Protocol Summary: Dopamine D2 receptor (DRD2) small molecule antagonists, cell-based qHTS assay (AID 1963595)
# Assay Setup: HEK293-DRD2 cAMP HTRF antagonist mode; series mostly up to 92.4 µM
Inconclusive results are not listed. Activity calls are given as the source filed them. Calls follow the shape of the dose curve; as a rule, active = well fitted inhibition curve with a large enough effect in the signal ratio in the repeat runs, with a control signal flat; inconclusive = weak or mixed curves, or effect the other way; inactive = flat fitted curve, though single readings scatter; the % refers to the signal ratio.
Your response should consist of one outcome taken from t for active, f for inactive

Compound | Group Label
COc1cc(NCc2ccc3nc(N)nc(N)c3c2C)cc(OC)c1OC | f

QUERY: Recorded call for C[C@@H](N)C(=O)O ?
RESULT: f

QUERY: Recorded call for CCOC(=O)CC(=O)C(=O)OCC ?
RESULT: f

QUERY: Recorded call for CCC(C)C(C)=O (stereo not drawn) ?
RESULT: f

QUERY: Recorded call for C1CCOC1 ?
RESULT: f

QUERY: Recorded call for CN[C@H]1CC[C@@H](c2ccc(Cl)c(Cl)c2)c2ccccc21 ?
RESULT: t

QUERY: Recorded call for C[Si](C)(C)O[Si](O)(O)O ?
RESULT: f

QUERY: Recorded call for Oc1c(I)cc(Cl)c2cccnc12 ?
RESULT: f

* * *

# Protocol Summary: p53 small molecule agonists, cell-based qHTS assay with human liver microsomes: qHTS cell viability counter screen (AID 1963579); also: nearly all actives have a fitted effect of over 45% in size
# Assay Setup: p53RE-bla HCT-116 viability, ATP luminescence, 16 h, HLM; series mostly up to 66 µM
Records with an inconclusive call do not appear. Calls of active or inactive are those of the source. The call rests on the fitted dose curve.
Your response should consist of one outcome taken from active, inactive

QUERY: Recorded call for CCCCCCCCCCCCCCC ?
RESULT: inactive

QUERY: Recorded call for CN(C)c1ccc(C2(c3ccc(N(C)C)cc3)OC(=O)c3cc(N(C)C)ccc32)cc1 ?
RESULT: active

QUERY: Recorded call for O=[N+]([O-])c1ccc(O)cc1 ?
RESULT: inactive

QUERY: Recorded call for CC[C@H]1CC[C@H](NCc2cc3c(cc2OC)[C@H]2C[C@H]2C(=O)N3C)[C@H](c2ccccc2)N1 ?
RESULT: inactive

QUERY: Recorded call for CCCC/C=C/CCCCO ?
RESULT: inactive

QUERY: Recorded call for CCCCC=O ?
RESULT: inactive

QUERY: Recorded call for CC(=O)SCC(CC(=O)c1ccc(C)cc1)C(=O)O (stereo not drawn) ?
RESULT: inactive

QUERY: Recorded call for O=Cc1ccccc1Cl ?
RESULT: inactive

QUERY: Recorded call for Cc1cc(=O)oc2cc(N(C)C)ccc12 ?
RESULT: inactive

QUERY: Recorded call for O=[N+]([O-])C1(Br)COCOC1 ?
RESULT: inactive

* * *

# Protocol Summary: p53 small molecule agonists, cell-based qHTS assay with rat liver microsomes: qHTS cell viability counter screen (AID 1963580); also: % is scaled to controls: 0 for no effect and ±100 for the full control effect; nearly all actives have a fitted effect of over 45% in size
# Assay Setup: p53RE-bla HCT-116 + rat microsomes, ATP viability, 16 h; series mostly up to 66 µM
Inconclusive results are not listed. Activity calls are given as the source filed them. Calls follow the shape of the full dose curve.
Your response should consist of one outcome taken from active, inactive

Molecule | Group Label
CC[N+](C)(CC)CC | inactive
CCCCCCCC/C=C\CCCCCCCC(=O)OC(CO)CO | inactive
C[C@H](CCC(=O)O)[C@H]1CC[C@H]2[C@@H]3C(=O)C[C@@H]4CC(=O)CC[C@]4(C)[C@H]3CC(=O)[C@]12C | inactive
CC(C)(C)c1cc(/C=C2\SC(=N)NC2=O)cc(C(C)(C)C)c1O | inactive
CNc1ccc([N+](=O)[O-])cc1 | inactive

QUERY: Recorded call for CC[N+](CC)(CC)CCOC(=O)C(C1CCCC1)C1CCCC1 ?
RESULT: inactive

QUERY: Recorded call for CCCCCCCCCCCCCCCCN ?
RESULT: inactive

QUERY: Recorded call for C=CC(C)(C)CC(=O)OC ?
RESULT: inactive

QUERY: Recorded call for C1CCC2=NCCCN2CC1 ?
RESULT: inactive

QUERY: Recorded call for O=S(=O)(O)c1ccccc1/C=C/c1ccc(-c2ccc(/C=C/c3ccccc3S(=O)(=O)O)cc2)cc1 ?
RESULT: inactive

* * *

# Test Target: KiSS-1 receptor (Homo sapiens)
# Protocol Summary: Human kisspeptin (KISS1R) small molecule agonists, calcium flux assay in KISS1R-HEK293 cells (AID 1920064); also: % is scaled to controls: 0 for no effect and ±100 for the full control effect
# Assay Setup: KISS1R-HEK293, calcium flux fluorescence, agonist; series mostly up to 76.8 µM
Calls of active or inactive are those of the source. Calls come from the whole dose curve; as a rule, active = well fitted activation curve with a large enough effect in the repeat runs; inconclusive = weak or mixed curves; inactive = flat fitted curve, though single readings scatter.
Endpoint: activation

# annotated cases, reported activation shown
Molecule | Result
CC[C@]12CCCN3CCc4c(n(c5ccccc45)C(=O)C1)[C@@H]32 | inactive
C=C[Si](OCC)(OCC)OCC | inactive
O=C1c2c(O)ccc([N+](=O)[O-])c2C(=O)c2c([N+](=O)[O-])ccc(O)c21 | inactive
C[C@@H](Oc1ccc(CNC(=O)c2cccnc2Oc2ccc3c(c2)OCO3)c(F)c1)C(=O)O | inactive

// each molecule listed below needs its activation
1. C[C@]12CC[C@H]3C(=CCc4cc(O)ccc43)[C@@H]1CCC2=O
2. C=CCCCCCCCCCCCCCC
3. CCCCCCCCNC
4. CC(CCO)CCCC(C)(C)O (stereo unspecified)
5. O=P(c1ccccc1)(c1ccccc1)c1ccccc1
6. CCC[C@@H]1C[C@@H](C(=O)N[C@@H]([C@H]2O[C@H](SC)[C@H](O)[C@@H](O)[C@H]2O)[C@@H](C)O)N(C)C1

RESULT:
1: inactive; 2: -0.0025% [at 15.8 µM] (inactive); 3: inactive; 4: inactive; 5: inactive; 6: inactive

QUERY: activation lookup needed for O=C1N=C(O)CN1/N=C/c1ccc(-c2ccc([N+](=O)[O-])cc2)o1 , thanks.
RESULT: inactive

* * *

# Protocol Summary: Nuclear factor erythroid 2-related factor 2/antioxidant responsive element (Nrf2/ARE) small molecule agonists: qHTS cell viability counter screen in human keratinocytes (AID 1919968); also: nearly all actives have a fitted effect of over 55% in size
# Assay Setup: KeratinoSens HaCaT ARE cells viability, CellTiter-Fluor, 24 h; series mostly up to 92.4 µM
Results filed as inconclusive are left out. Active and inactive are the calls of the source. Calls follow the shape of the dose curve; as a rule, active = well fitted cell-killing curve with a large enough effect in the repeat runs; inconclusive = weak or mixed curves, or effect the other way; inactive = flat fitted curve, though single readings scatter.
Your response should consist of one outcome taken from True = active, False = inactive

Compound | Group Label
CNC1CCCN(c2c(F)cc3c(=O)c(C(=O)O)cn(C4CC4)c3c2OC)C1 (stereo not drawn) | False
C=CC(=O)[O-].C=CC(=O)[O-].[Zn+2] | False
O=C1CC[C@@H](C(=O)O)N1 | False
CC/C=C\CCCCCCCCCCOC(C)=O | False
O=C1NCCN1CCN1CCC(c2cn(-c3ccc(F)cc3)c3ccc(Cl)cc23)CC1 | True
Oc1ccc2ccccc2c1 | False
CC(=O)Oc1ccc(C2(c3ccc(OC(C)=O)cc3)Oc3ccccc3NC2=O)cc1 | False
CC(C)(C)C(O)/C=C/c1ccc2c(c1)OCO2 (stereo not drawn) | False
CCOC(=O)[C@@H](C)Oc1ccc(Oc2nc3ccc(Cl)cc3o2)cc1 | False
CC(=O)c1ccc(C)cc1 | False

QUERY: Recorded call for Cc1ccc(Br)cc1 ?
RESULT: False

QUERY: Recorded call for Cc1coc2ccccc2c1=O ?
RESULT: False

QUERY: Recorded call for Cc1c[nH]c(=O)[nH]c1=O ?
RESULT: False

* * *

# Protocol Summary: G protein-coupled receptor (GPCR) small molecule agonists, calcium flux assay: HEK293 wild type cell line counter screen (AID 1920065); also: % is scaled to controls: 0 for no effect and ±100 for the full control effect
# Assay Setup: HEK293 WT calcium flux, fluorescence, agonist mode; series mostly up to 57.6 µM
Calls of active or inactive are those of the source. Calls come from the whole dose curve.
Endpoint: activation

Compound | activation
CCN(CCC#N)c1ccc(N=Nc2c(Cl)cc([N+](=O)[O-])cc2Cl)cc1 | inactive
O=C(Cl)c1cccc([N+](=O)[O-])c1 | inactive
CCNC(=O)/C=C/c1cccc(Br)c1 | inactive
CC(C)c1ccc2ncccc2c1 | inactive

// each compound listed below needs its activation
1. Cn1c(NCCN(CCO)CCCc2ccc([N+](=O)[O-])cc2)cc(=O)n(C)c1=O
2. CCN(CC)CCNc1ccc(CO)c2sc3ccccc3c(=O)c12
3. CCCC/C=C/CCCCO

RESULT:
1. inactive
2. inactive
3. inactive

* * *

# Test Target: 5-hydroxytryptamine receptor 2A (Homo sapiens) (UniProt P28223)
# Sequence (P28223 whole entry, looked up): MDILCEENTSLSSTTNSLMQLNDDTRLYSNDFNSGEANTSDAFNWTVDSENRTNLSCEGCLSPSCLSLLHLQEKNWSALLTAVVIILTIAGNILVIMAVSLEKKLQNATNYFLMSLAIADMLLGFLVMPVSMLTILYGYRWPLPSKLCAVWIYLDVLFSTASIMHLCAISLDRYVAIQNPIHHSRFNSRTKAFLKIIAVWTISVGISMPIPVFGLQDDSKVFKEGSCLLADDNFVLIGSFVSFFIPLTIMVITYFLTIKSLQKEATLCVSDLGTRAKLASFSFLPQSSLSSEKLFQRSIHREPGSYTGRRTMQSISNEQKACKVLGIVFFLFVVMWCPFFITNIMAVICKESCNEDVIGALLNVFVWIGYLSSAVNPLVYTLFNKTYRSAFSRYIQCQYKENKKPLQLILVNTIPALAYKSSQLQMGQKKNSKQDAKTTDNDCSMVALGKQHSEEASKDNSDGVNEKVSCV
# Protocol Summary: 5-hydroxytryptamine receptor 2A (HTR2A) small molecule antagonists, cell-based qHTS assay (AID 1963586); also: nearly all actives have a fitted effect of over 45% in size
# Assay Setup: HTR2A-CHO cells, DOI-induced calcium flux, fluorescence; series mostly up to 61.5 µM
Results filed as inconclusive are left out. Activity calls are given as the source filed them. The call rests on the fitted dose curve.
Your response should consist of one outcome taken from active, inactive

Study these solved cases before continuing.
Compound | Group Label
O=C1Cc2ccccc2N1c1c(Cl)cccc1Cl | inactive
Nc1ccc(N=Nc2ccc(N)cc2)cc1 | inactive
CCCCCCCCC(=O)OCC(C)OC(=O)CCCCCCCC (configuration not stated) | inactive
O=C1NC(=O)[C@@H]2CC=CC[C@H]12 | inactive
O=C1OC2(c3ccccc31)c1ccc(O)c(Br)c1Oc1c2ccc(O)c1Br | inactive

QUERY: Recorded call for CCCCCCOc1cc(C)c(O)c(C)c1C ?
RESULT: active

QUERY: Recorded call for CN(C)C(=O)Nc1ccccc1 ?
RESULT: inactive

QUERY: Recorded call for OC(C#CCN1CCCC1)(c1ccccc1)c1ccccc1 ?
RESULT: inactive

Where do these numbers come from? They come from PubChem BioAssay (Tox21).
